# Measured Target: Nuclear receptor subfamily 1 group I member 3 (Homo sapiens) (UniProt Q14994)
# Sequence (Q14994 whole entry, looked up): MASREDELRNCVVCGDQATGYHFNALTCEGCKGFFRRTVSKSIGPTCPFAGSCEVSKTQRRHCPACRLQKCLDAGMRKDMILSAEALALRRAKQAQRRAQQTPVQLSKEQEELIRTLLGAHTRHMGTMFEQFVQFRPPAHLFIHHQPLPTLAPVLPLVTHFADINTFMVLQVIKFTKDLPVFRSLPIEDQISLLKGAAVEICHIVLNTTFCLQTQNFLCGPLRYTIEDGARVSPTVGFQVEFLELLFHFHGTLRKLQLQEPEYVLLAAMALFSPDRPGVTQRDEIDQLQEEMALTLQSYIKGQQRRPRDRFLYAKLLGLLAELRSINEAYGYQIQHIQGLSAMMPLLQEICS
# Assay Info: qHTS assay to identify small molecule agonists of the constitutive androstane receptor (CAR) signaling pathway (AID 1224839); further: nearly all actives have a fitted effect of over 15% in size;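 on activation: HepG2 cells stably carrying human CAR and a CYP2B6 luciferase reporter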
# Protocol Conditions: HepG2 hCAR CYP2B6-luciferase, agonist mode, 24 h; series mostly up to 92.4 µM
Results filed as inconclusive are left out. Activity calls are given as the source filed them. The call rests on the fitted dose curve; in most records, active means well fitted activation curve with a large enough effect in the repeat runs; inconclusive means weak or mixed curves; inactive means no such curve, though single readings can be large or run the other way.
Result category, one only: 1 = active, 0 = inactive

For orientation, consider the following solved cases.
Cc1cc(O)c(Cl)c(C)c1Cl: 0
Cn1cc(C(=O)[C@@H]2CCc3nc[nH]c3C2)c2ccccc21: 0

INPUT: Hey, what did the test say about Cc1onc(-c2c(Cl)cccc2Cl)c1C(=O)N[C@@H]1C(=O)N2[C@@H]1SC(C)(C)[C@@H]2C(=O)O ?
OUTPUT: 0

INPUT: Per the assay record, what outcome was assigned to Cc1cccc2c1cc1ccc3cccc4ccc2c1c34 ?
OUTPUT: 1

INPUT: Any idea what this test logged for Cc1cc(O)c(C(C)(C)C)cc1Sc1cc(C(C)(C)C)c(O)cc1C ?
OUTPUT: 0

INPUT: Kindly provide the recorded test outcome for the following compound: Clc1ccc2cc3ccccc3cc2c1
OUTPUT: 1
